Assay: food effect study, 5 × 100 mg capsules (KD025-105)
Type: in vivo, human
Conditions: male, human, plasma, oral, 500 mg, 5 × 100 mg capsules, fasted; read-out: AUCinf, geometric mean (geometric CV %)
parameter: AUC(0-inf) (ng·h/mL)

> print(dat)
                              sample.smiles   parameter  measured
1  CC(C)NC(=O)COc1cccc(-c2nc(Nc3ccc4[nH]ncc4c3)c3ccccc3n2)c1  AUC(0-inf)      8310

###

Experiment: phase I two-part drug-drug interaction study, plasma pharmacokinetics (Example 1)
Format: in vivo, human
Details: male, human, plasma, oral, 200 mg belumosudil single dose + itraconazole; read-out: Tmax, median (range)
parameter: Tmax (h)

> print(dat)
                              sample.smiles  measured
1  CC(C)NC(=O)COc1cccc(-c2nc(Nc3ccc4[nH]ncc4c3)c3ccccc3n2)c1         3

###

Assay: phase I two-part drug-drug interaction study, plasma pharmacokinetics (Example 1)
Assay type: in vivo, human
Conditions: male, human, plasma, oral, 200 mg belumosudil single dose + rifampicin; read-out: Tmax, median (range)
parameter: Tmax (h)

> print(dat)
                              sample.smiles  measured
1  CC(C)NC(=O)COc1cccc(-c2nc(Nc3ccc4[nH]ncc4c3)c3ccccc3n2)c1         3

###

Test: relative bioavailability/food effect study, tablet and capsule (KD025-106)
Format: in vivo, human
Settings: male, human, plasma, oral, 200 mg, 200 mg tablet, fasted; read-out: AUC0-24, arithmetic mean (SD)
parameter: AUC(0-t) (µg·h/mL)

> print(dat)
                              sample.smiles  unit.annotation  measured
1  CC(C)NC(=O)COc1cccc(-c2nc(Nc3ccc4[nH]ncc4c3)c3ccccc3n2)c1          µg·h/mL       5.4

###

Test: phase I two-part drug-drug interaction study, plasma pharmacokinetics (Example 1)
Type: in vivo, human
Details: male, human, plasma, oral, 200 mg belumosudil single dose + rabeprazole; read-out: AUCinf, arithmetic mean (SD)
parameter: AUC(0-inf)

> print(dat)
                              sample.smiles      measured
1  CC(C)NC(=O)COc1cccc(-c2nc(Nc3ccc4[nH]ncc4c3)c3ccccc3n2)c1  1940 ng·h/mL

###

Assay: pH-dependent solubility
Type: physicochemical
Conditions: pH 6.5, aqueous buffer
parameter: solubility

> print(dat)
                              sample.smiles   parameter  measured
1  CC(C)NC(=O)COc1cccc(-c2nc(Nc3ccc4[nH]ncc4c3)c3ccccc3n2)c1  solubility   3 µg/mL

###

Assay: phase I two-part drug-drug interaction study, plasma pharmacokinetics (Example 1)
Type: in vivo, human
Details: male, human, plasma, oral, 200 mg belumosudil single dose + rifampicin; read-out: Cmax, geometric mean (geometric CV %)
parameter: Cmax (ng/mL)

> print(dat)
                              sample.smiles  measured
1  CC(C)NC(=O)COc1cccc(-c2nc(Nc3ccc4[nH]ncc4c3)c3ccccc3n2)c1       712

###

Assay: phase I two-part drug-drug interaction study, plasma pharmacokinetics (Example 1)
Assay type: in vivo, human
Settings: male, human, plasma, oral, 200 mg belumosudil BID + omeprazole; read-out: t1/2, geometric mean (geometric CV %) (converted)
parameter: half-life (h)

> print(dat)
                              sample.smiles  unit.annotation  measured
1  CC(C)NC(=O)COc1cccc(-c2nc(Nc3ccc4[nH]ncc4c3)c3ccccc3n2)c1                h      6.16

###

Test: relative bioavailability/food effect study, tablet and capsule (KD025-106)
Type: in vivo, human
Conditions: male, human, plasma, oral, 200 mg, 200 mg tablet, fed; read-out: AUClast, arithmetic mean (SD)
parameter: AUC(0-t)

> print(dat)
                                   molecule  parameter       measured
1  CC(C)NC(=O)COc1cccc(-c2nc(Nc3ccc4[nH]ncc4c3)c3ccccc3n2)c1 [Belumosudil]   AUC(0-t)  10800 ng·h/mL

###

Experiment: phase I two-part drug-drug interaction study, plasma pharmacokinetics (Example 1)
Assay type: in vivo, human
Details: male, human, plasma, oral, 200 mg belumosudil single dose + rifampicin; read-out: Cmax, arithmetic mean (SD)
parameter: Cmax

> print(dat)
                                   molecule  parameter   measured
1  CC(C)NC(=O)COc1cccc(-c2nc(Nc3ccc4[nH]ncc4c3)c3ccccc3n2)c1 [Belumosudil]       Cmax  753 ng/mL

###

Experiment: relative bioavailability/food effect study, tablet and capsule (KD025-106)
Format: in vivo, human
Conditions: male, human, plasma, oral, 200 mg, 200 mg tablet, fasted; read-out: AUClast, arithmetic mean (SD)
parameter: AUC(0-t) (ng·h/mL)

> print(dat)
                                   compound  measured
1  CC(C)NC(=O)COc1cccc(-c2nc(Nc3ccc4[nH]ncc4c3)c3ccccc3n2)c1 [Belumosudil]      5830

###

Assay: previously conducted solubility studies
Assay type: physicochemical
Conditions: pH 2.7, aqueous buffer
parameter: solubility

> print(dat)
                                   compound   parameter     measured
1  CC(C)NC(=O)COc1cccc(-c2nc(Nc3ccc4[nH]ncc4c3)c3ccccc3n2)c1 [Belumosudil]  solubility  > 100 µg/mL

###

Experiment: phase I two-part drug-drug interaction study, plasma pharmacokinetics (Example 1)
Type: in vivo, human
Details: male, human, plasma, oral, 200 mg belumosudil single dose + rifampicin; read-out: AUCinf, geometric mean (geometric CV %)
Protocol: The secondary objective was to provide additional information on the safety and tolerability of this dose regimen in healthy males. This was a single center, non-randomized, DDI study in 35 (Part 1) and 38 (Part 2) healthy males. […] For each comparison, PK parameters were natural log transformed and analyzed using mixed effect modeling with treatment included as a fixed effect and subject as a random effect. Adjusted geometric mean ratios (GMRs) and corresponding 90% CIs were calculated.
parameter: AUC(0-inf) (ng·h/mL)

> print(dat)
                              sample.smiles  measured
1  CC(C)NC(=O)COc1cccc(-c2nc(Nc3ccc4[nH]ncc4c3)c3ccccc3n2)c1      2500

###

Assay: phase I two-part drug-drug interaction study, plasma pharmacokinetics (Example 1)
Format: in vivo, human
Details: male, human, plasma, oral, 200 mg belumosudil single dose + rifampicin; read-out: AUCinf, arithmetic mean (SD)
parameter: AUC(0-inf) (ng·h/mL)

> print(dat)
                              sample.smiles   parameter  measured
1  CC(C)NC(=O)COc1cccc(-c2nc(Nc3ccc4[nH]ncc4c3)c3ccccc3n2)c1  AUC(0-inf)      2640

###

Assay: relative bioavailability/food effect study, tablet and capsule (KD025-106)
Type: in vivo, human
Details: male, human, plasma, oral, 200 mg, 200 mg tablet, fed; read-out: AUCinf, arithmetic mean (SD)
parameter: AUC(0-inf) (ng·h/mL)

> print(dat)
                              sample.smiles   parameter  unit.annotation  measured
1  CC(C)NC(=O)COc1cccc(-c2nc(Nc3ccc4[nH]ncc4c3)c3ccccc3n2)c1  AUC(0-inf)          ng·h/mL     11300

###

Assay: food effect study, 5 × 100 mg capsules (KD025-105)
Assay type: in vivo, human
Conditions: male, human, plasma, oral, 500 mg, 5 × 100 mg capsules, fed; read-out: Tmax, median (range)
parameter: Tmax (h)

> print(dat)
                                   compound  parameter  unit.annotation  measured
1  CC(C)NC(=O)COc1cccc(-c2nc(Nc3ccc4[nH]ncc4c3)c3ccccc3n2)c1 [Belumosudil]       Tmax                h         4

###

Test: phase I two-part drug-drug interaction study, plasma pharmacokinetics (Example 1)
Assay type: in vivo, human
Details: male, human, plasma, oral, 200 mg, 200 mg belumosudil single dose alone; read-out: t1/2, geometric mean (geometric CV %) (converted)
parameter: half-life (h)

> print(dat)
                                   compound  measured
1  CC(C)NC(=O)COc1cccc(-c2nc(Nc3ccc4[nH]ncc4c3)c3ccccc3n2)c1 [Belumosudil]      7.89

###

Test: phase I two-part drug-drug interaction study, plasma pharmacokinetics (Example 1)
Type: in vivo, human
Settings: male, human, plasma, oral, 200 mg belumosudil single dose + rifampicin; read-out: AUC0-24, geometric mean (geometric CV %)
parameter: AUC from 0 to 24 h (ng·h/mL)

> print(dat)
                              sample.smiles  unit.annotation  measured
1  CC(C)NC(=O)COc1cccc(-c2nc(Nc3ccc4[nH]ncc4c3)c3ccccc3n2)c1          ng·h/mL      2490
